Assay: Tanguay_ZF_120hpf_PE_legacy: (Legacy) Oregon State University Tanguay Lab 120 Hour Post-fertilization zebrafish Assay for Pericardial Edema (AID 2283640)
Procedure: Tanguay_ZF_120hpf_legacy is a whole embryo, multiplexed endpoint assay using zebrafish larvae exposed for 120 hours post fertilization on a 96-well plate.Tanguay_ZF_120hpf_PE_legacy is one of one assay component(s) measured or calculated from the Tanguay_ZF_120hpf_legacy assay. […] This assay endpoint, Tanguay_ZF_120hpf_PE_legacy, was analyzed in the positive analysis fitting direction relative to DMSO as the negative control and baseline of activity. […]
Inconclusive results are not listed. Activity calls are given as the source filed them. The calls were made as follows: active = hit-call score of the fitted dose curve at least 0.9, where 1 is the maximum; inconclusive = response in the unintended direction; inactive = score below 0.9.
Outcomes: T (active), F (inactive)

INSERT INTO results (compound, classification) VALUES
  ('CCCCCCC(CCCCCCCCCCC(=O)OCC(COC(C)=O)OC(C)=O)OC(C)=O (centres undefined)', 'F'),
  ('CCCC(=O)O', 'F'),
  ('CCC(C)N(C)C(=O)c1cc2ccccc2c(-c2ccccc2Cl)n1 (centres undefined)', 'T'),
  ('CCCCCCCCCC[N+](C)(C)[O-]', 'F'),
  ('OCC(O)CO', 'F'),
  ('CCCCCCC(C=O)=Cc1ccccc1', 'F'),
  ('CCCCCCCC(=O)OC', 'F'),
  ('CN(C)CCCN(C)CCCN(C)C', 'F'),
  ('Oc1ccccc1O', 'F'),
  ('COC(=O)CCCC(=O)OC', 'F'),
  ('Oc1ccc(O)cc1', 'F'),
  ('CCN(CC)CCOc1ccc(C(=C(Cl)c2ccccc2)c2ccccc2)cc1', 'F'),
  ('C/C=C/C=C/C(=O)O', 'F'),
  ('CC(N)=O', 'F'),
  ('O=C(O)c1[nH]n(-c2ccc(S(=O)(=O)O)cc2)c(=O)c1N=Nc1ccc(S(=O)(=O)O)cc1', 'F'),
  ('CC1(C)C(=O)NC(=O)N1CO', 'F'),
  ('O=C(O)CN(CC(=O)O)CC(=O)O', 'F'),
  ('CC(=O)O', 'F'),
  ('CCCCCCCCCCCCCCCCO', 'F'),
  ('O=NO', 'F'),
  ('Cc1c(C)c2c(c(C)c1O)CCC(C)(COc1ccc(CC3SC(=O)NC3=O)cc1)O2 (centres undefined)', 'F'),
  ('O=C1CCCCC1', 'F'),
  ('Cc1ccc(C(C)(C)C)c(O)c1', 'F'),
  ('CC(=O)OC1CC(C)OC(C)O1 (centres undefined)', 'F'),
  ('O=C(O)CC(O)(CC(=O)O)C(=O)O', 'F'),
  ('OCC(CO)n1cnc(-c2ccc(F)cc2)c1-c1ccnc(Oc2ccccc2)n1', 'F'),
  ('Nc1nc(Cl)nc2c1ncn2[C@H]1C[C@H](O)[C@@H](CO)O1', 'F'),
  ('CN(C)C(=O)NC1(c2ccccc2)CCN(CC[C@@]2(c3ccc(F)c(F)c3)CN(C(=O)c3ccccc3)CCO2)CC1', 'F'),
  ('CCCC[C@H]1CN(CC2CCOCC2)C(=O)OC12CCN(C1(C)CCN(C(=O)c3c(C)ncnc3C)CC1)CC2', 'F');
